# MEASUREMENT_NOTES: MTS cell viability assay, HDF
# Assay type: cell-based
# EXPERIMENTAL_SETUP: human, HDF dermal fibroblasts, TP4 15.0 μg/mL, 12 h, mean±SD, read-out: Cellular toxicity (cell viability), MTS assay
Where no end group is shown, it is not given here.
READOUT_LABEL: viability at 12 h, 15 μg/mL
Your answer should be a number followed by the unit of measure.

# return recorded viability at 12 h, 15 μg/mL for entry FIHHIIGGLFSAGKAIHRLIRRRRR [TP4, tilapia piscidin 4]
85.9%

* * *

# MEASUREMENT_NOTES: MTS cell viability assay, M10
# Assay type: cell-based
# EXPERIMENTAL_SETUP: human, M10 normal human mammary epithelial cells; M10, TP4 15.0 μg/mL, 12 h, mean±SD; read-out: Cellular toxicity (cell viability), MTS assay
Where no end group is shown, it is not given here.
READOUT_LABEL: viability at 12 h, 15 μg/mL (%)
The reply should contain only the number, in %.

# return recorded viability at 12 h, 15 μg/mL for entry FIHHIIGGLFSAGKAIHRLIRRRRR [TP4, tilapia piscidin 4]
65.5
